System: Staphylococcus aureus ATCC 25923
Format: cell-based
Settings: ATCC 25923
Peptide text beside a SMILES is read from it. * marks the point of attachment. Fmoc = O=C(OCC1c2ccccc2-c2ccccc21)*; Acm = CC(=O)NC*
QUANTITY_MEASURED: MIC S. aureus (µg/mL)
One number for each entry, in µg/mL.

Value wanted: MIC S. aureus (Staphylococcus aureus ATCC 25923) of entry CSCC[C@H](NC(=O)[C@H](CCCNC(=N)N)NC(=O)[C@H](C)NC(=O)[C@H](CCC(N)=O)NC(=O)[C@H](Cc1c[nH]c2ccccc12)NC(=O)[C@H](CCCNC(=N)N)NC(=O)[C@H](CCCNC(=N)N)NC(=O)[C@H](CSCNC(C)=O)NC(=O)[C@H](CCCCN)NC(=O)[C@H](Cc1ccccc1)NC(=O)OCC1c2ccccc2-c2ccccc21)C(=O)N[C@@H](CCCCN)C(=O)N[C@@H](CCCCN)C(=O)N[C@@H](CC(C)C)C(=O)NCC(=O)N[C@@H](C)C(=O)O [LFB A8 FMOC] (Fmoc-FKC(Acm)RRWQARMKKLGA-OH)
10
